# METHOD: viability loss with induced miR-34 in A549 – imaging, A549 dox-inducible miR-34, nuclei and caspase counts, primary screen (AID 1347080)
# RUN_PARAMETERS: A549 miR-34 inducible, Hoechst nuclei count, 48 h; hits give low values; cell number ratio, induced over uninduced
MEASUREMENT_TYPE: fold change
One number for each entry.

Example entries and their recorded answers appear below.
[
  {
    "COMPOUND": "Cc1c(C(=O)N(C)C2CCCCC2)sc2nc3ccc(N)cc3n12",
    "fold change": 0.956
  },
  {
    "COMPOUND": "CCCCC[C@H](O)/C=C/[C@@H]1[C@H]2C/C=C\\CCCC(=O)O[C@H]2C[C@H]1O",
    "fold change": 0.977
  },
  {
    "COMPOUND": "COc1cc2nccc(Oc3ccc(NC(=O)Nc4cc(C)on4)c(Cl)c3)c2cc1OC",
    "fold change": 1.35
  }
]

For each entry beneath this line, provide reported fold change.
1. CNC(=O)[C@H]1O[C@@H](n2cnc3c(NCc4cccc(I)c4)ncnc32)[C@H](O)[C@@H]1O
2. CC(C)=CCC/C(C)=C/CC/C(C)=C/CC[C@]1(C)CCc2cc(O)cc(C)c2O1
3. O=C(NC1CCN(Cc2ccccc2)CC1)c1ccc(I)cc1

[0.865, 0.922, 0.862]

----------
# METHOD: JHH-DIPG-1 glioma cell viability, MIPE5.0 library, CellTiter-Glo luminescence, qHTS (AID 1347067);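 note: cells exposed to compound for 48 hours before readout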
# RUN_PARAMETERS: JHH-DIPG-1 glioma viability, CellTiter-Glo ATP luminescence
Records with an inconclusive call do not appear. Calls of active or inactive are those of the source. No cut-off is given here; in the data, nearly all actives have AC50 up to about 26 µM.
Result category, one only: 1.0 = active, 0.0 = inactive

Answered examples (2):
[
  {
    "MOLECULE": "Nc1ncnc(Nc2ccc(OCc3ccccc3)c(Cl)c2)c1/C=N/OCCN1CCOCC1",
    "CATEGORY_LABEL": 1.0
  },
  {
    "MOLECULE": "O=C(Nc1ccccc1)Nc1ccc(-c2ccc(C(=O)[C@@H]3CCC[C@H]3C(=O)O)cc2)cc1",
    "CATEGORY_LABEL": 0.0
  }
]

Call for entry `CN1CC[C@@H](c2c(O)cc(O)c3c(=O)cc(-c4ccc(C(F)(F)F)cc4Cl)oc23)[C@@H]1CO` :
0.0

Please answer likewise for `COc1ncc(-c2ccc3nccc(-c4ccnnc4)c3c2)cc1NS(=O)(=O)c1ccc(F)cc1F`
1.0

Lookup COC(=O)C1C2CC3c4[nH]c5cc(OC)ccc5c4CCN3CC2CC(OC(=O)c2cc(OC)c(OC)c(OC)c2)C1OC (stereo not drawn)
1.0

Next entry: `CC(C)(C)c1nc(-c2cccc(NS(=O)(=O)c3c(F)cccc3F)c2F)c(-c2ccnc(N)n2)s1`
0.0

Subsequent entry: `COc1cc2c(NC3CCN(C)CC3)nc(N3CCCN(C)CC3)nc2cc1OCCCN(C)C`
0.0

Input `CCCCn1c(=O)n(Cc2ccccc2F)c(=O)c2[nH]c(Cc3ccc(NC(C)=O)cc3)nc21`
0.0

Then what about the molecule COc1c(Nc2ncc(Cl)c(N[C@H]3[C@H](C(N)=O)[C@@H]4C=C[C@@H]3C4)n2)ccc2c1CCC(N1CCOCC1)CC2 (stereo partly drawn) ?
1.0

Would you kindly repeat that for `CCC(=O)O[C@]1(C(=O)CO)CC[C@H]2[C@@H]3CCC4=CC(=O)CC[C@]4(C)[C@H]3CC[C@@]21C` ?
0.0

Also, `NS(=O)(=O)NCCNc1nonc1C(=Nc1ccc(F)c(Br)c1)NO` please.
0.0

Now give it for `Cc1c(-c2ccc(-c3ccccc3F)cc2)nc2ccc(F)cc2c1C(=O)O` too.
0.0
